Attribution: paper PMC9482650

- target-or-test-system: T1, RAPGEF6, Q8TEU7
- T1 sequence (Q8TEU7 525-625, limits assumed, looked up): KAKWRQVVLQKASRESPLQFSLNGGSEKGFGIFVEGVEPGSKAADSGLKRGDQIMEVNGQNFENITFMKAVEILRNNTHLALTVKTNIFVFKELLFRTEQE
- assay-comment: holdup assay
- Set-up: key: below the threshold = too weak to quantify, mostly under pKd 3.1 to 4
- cond: plain residues with an end cap or a label only (N-terminal biotin on a linker: ttds)
value-type: pKd

{"binder": "QSARYRDTEL [TJP2, Q9UDY2]", "obs-value": 3.55}
{"binder": "ERKLSSESQV [LRP4, O75096]", "obs-value": "below the threshold"}
{"binder": "TVASEKESVM [SLC1A5, Q15758]", "obs-value": "below the threshold"}
{"binder": "RSLEEEESQL [GRASP, Q7Z6J2]", "obs-value": 3.56}
